# experimental.details: Selectivity index, ratio of IC50 for human MCF7 cells to IC50 for chloroquine-resistant Plasmodium falciparum Dd2
# Type: toxicity, cell-based
# measurement.context: read-out: Ratio IC50
Readings of selectivity ratio for the listed compounds
Simply state the number, no unit and no words.

Task: Record request: selectivity ratio value, item CC(C)=C[C@H](O)C[C@@H](C)[C@H]1CC[C@@]2(C)[C@@H]3[C@@H](O[C@@H]4O[C@H](CO)[C@@H](O)[C@@H](O)[C@H]4O)C=C4[C@@H](CC[C@H](O)C4(C)C)[C@]3(C)CC[C@]12C (relative stereo) [BALSAMINOSIDE B]
Result: 2.3

Task: Record request: selectivity ratio value, item CC(C)=C[C@H](O)C[C@@H](C)[C@H]1CC[C@@]2(C)[C@@H]3[C@@H](O)C=C4[C@@H](CC[C@H](O)C4(C)C)[C@]3(C)CC[C@]12C (relative stereo)
Result: 1.4

====

# System: Plasmodium falciparum
# experimental.details: Antimalarial activity against chloroquine-resistant Plasmodium falciparum Dd2 infected in erythrocytes after 48 hrs by SYBR green 1-based fluorescence assay
# Format: functional, organism-based
# measurement.context: Dd2, 48 h
pIC50: −log10 of the molar value.
Lab note: compare pIC50 against 5. Equal or greater, write MET. Smaller, write NOT MET.

Some solved entries appear below for comparison.
>  <compound>
CC(C)=C[C@H](O)C[C@@H](C)[C@H]1CC[C@@]2(C)[C@@H]3[C@@H](O[C@@H]4O[C@H](CO)[C@@H](O)[C@@H](O)[C@H]4O)C=C4[C@@H](CC[C@H](O)C4(C)C)[C@]3(C)CC[C@]12C (relative stereo) [BALSAMINOSIDE B]

>  <label>
MET

$$$$
>  <compound>
CO[C@H]1C=C2[C@@H](CC[C@H](O)C2(C)C)[C@]2(C)CC[C@]3(C)[C@@H]([C@H](C)CC(C=C(C)C)O[C@@H]4O[C@H](CO)[C@@H](O)[C@H](O)[C@H]4O)CC[C@@]3(C)[C@H]12 (stereo partly specified) [KUGUAGLYCOSIDE A]

>  <label>
MET

$$$$
>  <compound>
CC(C)=C[C@H](O)C[C@@H](C)[C@H]1CC[C@@]2(C)[C@@H]3[C@@H](O)C=C4[C@@H](CC[C@H](O)C4(C)C)[C@]3(C)CC[C@]12C (relative stereo)

>  <label>
NOT MET

$$$$
>  <compound>
CC(=O)O[C@H]1C=C2[C@@H](CC[C@H](OC(C)=O)C2(C)C)[C@]2(C)CC[C@]3(C)[C@@H]([C@H](C)C[C@H](C=C(C)C)OC(C)=O)CC[C@@]3(C)[C@H]12

>  <label>
MET

$$$$

Task: Would you say CC(C)=C[C@@H](C[C@@H](C)[C@H]1CC[C@@]2(C)[C@@H]3[C@@H](OC(=O)c4ccccc4)C=C4[C@@H](CC[C@H](OC(=O)c5ccccc5)C4(C)C)[C@]3(C)CC[C@]12C)OC(=O)c1ccccc1 shows pIC50 at minimum 5?
Result: NOT MET
